target: Mitogen-activated protein kinase 11 (Homo sapiens) (UniProt Q15759); details: at 0.1 µM;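 note: reported values are averaged (mean) percent inhibition of p38beta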
Sequence (Q15759 whole entry): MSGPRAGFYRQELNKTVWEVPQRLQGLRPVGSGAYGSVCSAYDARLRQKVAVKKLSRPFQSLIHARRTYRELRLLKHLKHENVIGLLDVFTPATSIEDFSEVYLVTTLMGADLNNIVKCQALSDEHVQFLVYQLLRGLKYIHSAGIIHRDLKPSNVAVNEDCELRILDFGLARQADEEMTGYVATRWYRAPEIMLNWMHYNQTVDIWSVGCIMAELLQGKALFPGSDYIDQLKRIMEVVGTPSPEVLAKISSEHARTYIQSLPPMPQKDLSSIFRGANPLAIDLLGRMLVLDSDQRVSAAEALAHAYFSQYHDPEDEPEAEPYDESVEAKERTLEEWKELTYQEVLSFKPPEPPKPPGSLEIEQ
Entry class follows inhibition: low end = under 3%, middle = from 3% up to 5%, high end = 5% and over

smiles record: COc1ccccc1-c1cc(/C=C2\C(=O)Nc3ncc(Br)cc32)cc(Br)c1O
label value: high end

Form field 'band' for `CS(=O)(=O)Nc1ccc(-c2cc(-c3ccccc3)cc(C(N)=O)c2N)cc1`
low end

Next compound up: `O=C(O[C@H]1CN[C@H](C#Cc2cc3ncnc(Nc4ccc5c(ccn5Cc5cc(F)ccc5F)c4)c3s2)C1)N1CCOCC1`
middle

Subsequent entry: `COc1c(C(N)=O)cc(-c2ccc(Cl)cc2)cc1-c1ccc(S(N)(=O)=O)cc1`
middle

###

target: Tyrosine-protein kinase SYK (Homo sapiens) (UniProt P43405); settings: at 1 µM
Description: GSK_PKIS: SYK mean inhibition at 1 uM [Nanosyn]
endpoint label: inhibition
Respond with a number, then the unit of measure.

Below: 5 compounds and their reported inhibition.
smiles record: COc1cc(Nc2ncc(-c3ccccc3)o2)cc(OC)c1
subject of test: Tyrosine-protein kinase SYK (Homo sapiens) (UniProt P43405)
inhibition: -7.57%

smiles record: CS(=O)(=O)CCNCc1ccc(-c2ccc3ncnc(Nc4ccc(OCc5cccc(C(F)(F)F)c5)cc4)c3c2)o1
subject of test: Tyrosine-protein kinase SYK (Homo sapiens) (UniProt P43405)
inhibition: -0.03%

smiles record: CCN1CCC(C(=O)Nc2n[nH]c3nnc(-c4cccc(F)c4F)cc23)CC1
subject of test: Tyrosine-protein kinase SYK (Homo sapiens) (UniProt P43405)
inhibition: 0.2%

smiles record: CS(=O)(=O)CCNCc1ccc(-c2ccc3ncnc(Nc4ccc(OCc5ccccc5)cc4)c3c2)o1
subject of test: Tyrosine-protein kinase SYK (Homo sapiens) (UniProt P43405)
inhibition: -0.71%

smiles record: COC(=O)Nc1nc2ccc(Oc3ccc(NC(=O)Nc4cc(C(F)(F)F)ccc4F)cc3)cc2s1
subject of test: Tyrosine-protein kinase SYK (Homo sapiens) (UniProt P43405)
inhibition: 0.26%

In the following, a different compound is considered.
Look up inhibition: `CN(c1ccc(NC(=O)NCCN2CCOCC2)cc1)c1ccnc(Nc2ccc(CS(C)(=O)=O)cc2)n1`
-6.78%

###

target: Cyclin-dependent kinase 2 (Homo sapiens) (UniProt P24941); conditions: at 0.1 µM;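 note: mean inhibition of CDK2 bound to cyclin A, from the GSK PKIS kinase inhibitor set screen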
Response key: y means inhibition >= 1%; n means inhibition < 1%.

Known results for compounds:
smiles record: OCCCNc1nccc(-c2c(-c3ccc(F)cc3)nn3cc(C(F)(F)F)ccc23)n1
label value: n
--
smiles record: COc1cc(N2CCN(C(C)C)CC2)ccc1Nc1nc(Nc2cccc3ncccc23)c2cc[nH]c2n1
label value: y
--
smiles record: COc1cccc(-n2ncc3c(N/N=C/c4ccc(C(=O)NCCN(C)C)cc4)ncnc32)c1
label value: y
--
smiles record: O=C(O[C@H]1CN[C@H](C#Cc2cc3ncnc(Nc4ccc5c(ccn5Cc5cc(F)ccc5F)c4)c3s2)C1)N1CCOCC1
label value: y

--- query ---
Has `CNC(=O)c1sc(-n2cnc3cc(OC)c(OC)cc32)cc1OCc1ccccc1C(F)(F)F` a recorded inhibition greater than or equal to 1%?
n

###

target: Tyrosine-protein kinase Lck (Homo sapiens); details: at 1 µM;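 note: reported Lck percent inhibition is a mean value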
Everything with inhibition lower than 5% is No; everything else, including exactly 5%, is Yes.

smiles record: OCCCNc1nccc(-c2c(-c3ccc(F)cc3)nn3cc(C(F)(F)F)ccc23)n1
label value: Yes

smiles record: Cn1c(-c2nonc2N)nc2cnccc21
label value: No

smiles record: Fc1cccc(COc2ccc(Nc3ncncc3C#Cc3ccccc3)cc2Cl)c1
label value: No

smiles record: COc1ccc2ncn(-c3cc(O[C@H](C)c4ccccc4C(F)(F)F)c(C(N)=O)s3)c2c1
label value: No

smiles record: c1cnn2ncc(-c3ccnc(NCCCN4CCOCC4)n3)c2c1
label value: No

hey, is inhibition for this one >= 5%? `COc1cc(Nc2ncc(-c3ccccc3)o2)cc(OC)c1`
Yes

Let us now turn to `CNC(=O)c1ncccc1Nc1nc(Nc2cc3c(cc2OC)CCCN3C(=O)CN(C)C)nc2[nH]ccc12`
No

What do you have for `O=C(O[C@H]1CN[C@H](C#Cc2cc3ncnc(Nc4ccc5c(cnn5Cc5ccccc5)c4)c3s2)C1)N1CCOCC1` ?
Yes

Okay, and `CN(c1ccc(NC(=O)NCCN2CCOCC2)cc1)c1ccnc(Nc2ccc(CS(C)(=O)=O)cc2)n1` ?
Yes

For `CNC(=O)c1sc(-n2cnc3cc(OC)c(OC)cc32)cc1OCc1ccccc1C(F)(F)F` then?
Yes

All figures here come from ChEMBL document CHEMBL1961873.
